# credit: patent US20160251440A1

Target: T1, human IL12Rβ2, cell-expressed (human, UniProt Q99665 24-862)
T1 sequence (looked up): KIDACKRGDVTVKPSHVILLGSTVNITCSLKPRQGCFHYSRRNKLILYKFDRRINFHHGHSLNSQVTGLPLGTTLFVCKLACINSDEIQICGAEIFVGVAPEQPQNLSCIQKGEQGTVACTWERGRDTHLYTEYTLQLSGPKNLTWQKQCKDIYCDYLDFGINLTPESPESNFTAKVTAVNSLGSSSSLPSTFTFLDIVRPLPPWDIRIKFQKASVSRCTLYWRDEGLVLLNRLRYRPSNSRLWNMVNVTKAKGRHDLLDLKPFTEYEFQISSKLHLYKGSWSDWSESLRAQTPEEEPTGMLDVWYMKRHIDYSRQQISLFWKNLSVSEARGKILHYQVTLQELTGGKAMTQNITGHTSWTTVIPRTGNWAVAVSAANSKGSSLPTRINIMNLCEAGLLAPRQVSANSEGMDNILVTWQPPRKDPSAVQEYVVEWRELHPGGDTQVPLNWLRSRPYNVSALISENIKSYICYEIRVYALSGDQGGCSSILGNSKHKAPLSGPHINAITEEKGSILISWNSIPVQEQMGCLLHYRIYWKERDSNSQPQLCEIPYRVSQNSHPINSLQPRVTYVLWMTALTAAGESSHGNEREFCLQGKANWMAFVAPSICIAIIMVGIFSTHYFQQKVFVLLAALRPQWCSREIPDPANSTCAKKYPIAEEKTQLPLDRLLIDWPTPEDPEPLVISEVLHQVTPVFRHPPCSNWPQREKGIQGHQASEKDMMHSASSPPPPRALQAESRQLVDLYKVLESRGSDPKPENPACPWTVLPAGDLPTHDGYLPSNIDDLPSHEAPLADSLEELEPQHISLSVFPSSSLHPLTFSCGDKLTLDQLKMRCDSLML
Test: cell-based or functional assay
Quantity kind: IC50, IFNγ release, T cells D839
Answer format: value, then unit.

Recorded result, IL12Rb2#1: 135B08 (VHH, also called IL12Rβ2#1; LG135B08) VHH: EVQLVESGGRLVQAGDSLRLSCAASGRTFISYRMGWFRQAPGKEREFVAALRWSSSNIDYTYYADSVKGRFSISGDYAKNTVYLQMNSLKAEDTAVYYCAASTRWGVMESDTEYTSWGQGTLVTVSS , IC50, IFNγ release, T cells D839: 51 nM

Recorded result, IL12Rb2#2: 135A07 (VHH, also called IL12Rβ2#2; LG135A07) VHH: EVQLVESGGRLVQAGDSLRLSCAASGRTFTSYRMGWFRQAPGKEREFVSALRWSSGNIDYTYYADSVKGRFSISGDYAKNTVYLQMNSLKAEDTAVYYCAASTRWGVMESDTEYTSWGQGTLVTVSS , IC50, IFNγ release, T cells D839: 67 nM

Recorded result, IL12Rb2#1-35GS-CD4#8 (bispecific antibody, defined by its make-up (Nb1-Nb2)) EVQLVESGGRLVQAGDSLRLSCAASGRTFISYRMGWFRQAPGKEREFVAALRWSSSNIDYTYYADSVKGRFSISGDYAKNTVYLQMNSLKAEDTAVYYCAASTRWGVMESDTEYTSWGQGTLVTVSSGGGGSGGGGSGGGGSGGGGSGGGGSGGGGSGGGGSEVQLVESGGGSVQPGGSLTLSCGTSGRTFNVMGWFRQAPGKEREFVAAVRWSSTGIYYTQYADSVKSRFTISRDNAKNTVYLEMNSLKPEDTAVYYCAADTYNSNPARWDGYDFRGQGTLVTVSS , IC50, IFNγ release, T cells D839: 0.11 nM

Recorded result, CD4#8-35GS-IL12Rb2#1 (bispecific antibody, defined by its make-up) EVQLVESGGGSVQPGGSLTLSCGTSGRTFNVMGWFRQAPGKEREFVAAVRWSSTGIYYTQYADSVKSRFTISRDNAKNTVYLEMNSLKPEDTAVYYCAADTYNSNPARWDGYDFRGQGTLVTVSSGGGGSGGGGSGGGGSGGGGSGGGGSGGGGSGGGGSEVQLVESGGRLVQAGDSLRLSCAASGRTFISYRMGWFRQAPGKEREFVAALRWSSSNIDYTYYADSVKGRFSISGDYAKNTVYLQMNSLKAEDTAVYYCAASTRWGVMESDTEYTSWGQGTLVTVSS , IC50, IFNγ release, T cells D839: 0.78 nM

Recorded result, CD4#8-35GS-IL12Rb2#2 (bispecific antibody, defined by its make-up) EVQLVESGGGSVQPGGSLTLSCGTSGRTFNVMGWFRQAPGKEREFVAAVRWSSTGIYYTQYADSVKSRFTISRDNAKNTVYLEMNSLKPEDTAVYYCAADTYNSNPARWDGYDFRGQGTLVTVSSGGGGSGGGGSGGGGSGGGGSGGGGSGGGGSGGGGSEVQLVESGGRLVQAGDSLRLSCAASGRTFTSYRMGWFRQAPGKEREFVSALRWSSGNIDYTYYADSVKGRFSISGDYAKNTVYLQMNSLKAEDTAVYYCAASTRWGVMESDTEYTSWGQGTLVTVSS , IC50, IFNγ release, T cells D839: 0.76 nM

Recorded result, IL12Rb2#2-35GS-CD4#8 (bispecific antibody, defined by its make-up) EVQLVESGGRLVQAGDSLRLSCAASGRTFTSYRMGWFRQAPGKEREFVSALRWSSGNIDYTYYADSVKGRFSISGDYAKNTVYLQMNSLKAEDTAVYYCAASTRWGVMESDTEYTSWGQGTLVTVSSGGGGSGGGGSGGGGSGGGGSGGGGSGGGGSGGGGSEVQLVESGGGSVQPGGSLTLSCGTSGRTFNVMGWFRQAPGKEREFVAAVRWSSTGIYYTQYADSVKSRFTISRDNAKNTVYLEMNSLKPEDTAVYYCAADTYNSNPARWDGYDFRGQGTLVTVSS , IC50, IFNγ release, T cells D839: 0.031 nM
